Can you tell me koff for the items I'm about to list?
- Tested on: T1, human folate receptor alpha (hFRα), recombinant protein (human, UniProt P15328 25-233)
- T1 construct: Bought recombinant proteins (His-tagged, or biotinylated via Avi-tag, e.g. AcroBiosystems FO1-H82E2, F01-H52H1); also called hFOLR1; huFOLR1
- T1 sequence (P15328 25-233 limits assumed): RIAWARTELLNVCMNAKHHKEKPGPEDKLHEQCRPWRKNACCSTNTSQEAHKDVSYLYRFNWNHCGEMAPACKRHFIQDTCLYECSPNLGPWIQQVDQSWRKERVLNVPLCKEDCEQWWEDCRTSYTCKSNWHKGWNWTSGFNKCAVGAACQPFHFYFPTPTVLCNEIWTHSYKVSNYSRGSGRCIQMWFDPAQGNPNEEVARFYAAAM
- Assay: BLI, purified VHH
Answers are plain numbers, in s⁻¹.

Consider the worked cases shown below.
P01500054: P01500001(I33L, N73P)-FLAG3-HIS6 (VHH, also called P0150054) VHH: EVQLVESGGGLVQPGGSLRLSCAASGSGFSGMLMGWYRQAPGKQRELVATVTSHGTTNYADSVKGRFTISRDPAKNTVYLQMNSLRPEDTAVYYCNAHFPGIYWGKGTLVTVSS	0.000968
P01500045: P01500001(G26E, I33L)-FLAG3-HIS6 (VHH, also called P0150045) VHH: EVQLVESGGGLVQPGGSLRLSCAASESGFSGMLMGWYRQAPGKQRELVATVTSHGTTNYADSVKGRFTISRDNAKNTVYLQMNSLRPEDTAVYYCNAHFPGIYWGKGTLVTVSS	0.00157
P01500050: P01500001(G28T, D72P)-FLAG3-HIS6 (VHH, also called P0150050) VHH: EVQLVESGGGLVQPGGSLRLSCAASGSTFSGMIMGWYRQAPGKQRELVATVTSHGTTNYADSVKGRFTISRPNAKNTVYLQMNSLRPEDTAVYYCNAHFPGIYWGKGTLVTVSS	0.00105

Next, consider the following binder.
Exercise: Return reported koff; argument: P01500053: P01500001(S30I, I33L, N73P)-FLAG3-HIS6 (VHH, also called P0150053) VHH: EVQLVESGGGLVQPGGSLRLSCAASGSGFIGMLMGWYRQAPGKQRELVATVTSHGTTNYADSVKGRFTISRDPAKNTVYLQMNSLRPEDTAVYYCNAHFPGIYWGKGTLVTVSS
Solution: 0.000943
